Target: Tel-FGFR4 (Homo sapiens (Human), UniProt P22455+P41212)
Sequence (P22455 other isoform, or with tags, fused parts or gaps): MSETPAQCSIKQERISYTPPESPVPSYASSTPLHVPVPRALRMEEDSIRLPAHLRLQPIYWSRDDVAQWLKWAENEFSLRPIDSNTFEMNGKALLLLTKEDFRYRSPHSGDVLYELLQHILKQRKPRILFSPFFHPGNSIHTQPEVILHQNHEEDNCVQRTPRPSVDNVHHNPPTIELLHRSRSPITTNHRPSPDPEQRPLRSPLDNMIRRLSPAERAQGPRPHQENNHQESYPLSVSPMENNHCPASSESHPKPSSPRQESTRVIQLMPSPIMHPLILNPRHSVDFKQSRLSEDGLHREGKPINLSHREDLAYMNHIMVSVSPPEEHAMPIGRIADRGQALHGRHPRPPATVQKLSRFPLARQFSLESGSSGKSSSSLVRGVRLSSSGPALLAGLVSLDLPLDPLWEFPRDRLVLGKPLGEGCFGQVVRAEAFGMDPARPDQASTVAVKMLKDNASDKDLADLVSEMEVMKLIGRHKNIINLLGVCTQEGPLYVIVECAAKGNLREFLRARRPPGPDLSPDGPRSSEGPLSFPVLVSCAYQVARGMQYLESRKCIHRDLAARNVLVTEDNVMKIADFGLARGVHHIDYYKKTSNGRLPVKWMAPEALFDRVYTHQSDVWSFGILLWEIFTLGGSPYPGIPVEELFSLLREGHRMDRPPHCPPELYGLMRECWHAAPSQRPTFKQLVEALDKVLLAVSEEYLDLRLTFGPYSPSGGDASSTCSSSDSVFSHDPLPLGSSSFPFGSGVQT
Assay: In vitro cellular kinase assay for FGFR4 (BaF3-Tel-FGFR4 cells, MSD capture ELISA of tyrosine phosphorylation)
Settings: Cellular BaF3 FGFR4 assay
measurement.kind: IC50 (nM)
Give bare numbers, in nM.

*Q* If you can, please state the reported IC50 value of `COCCNc1cc(NC(=O)N2CCCc3cc(CN4CC[C@H](N(C)C)C4=O)c(C=O)nc32)ncc1C#N` .
*A* 5.3

----------
Molecular target: FGFR4 (GST-FGFR4(388-802)) (Homo sapiens (Human))
Sequence (P22455 388-802): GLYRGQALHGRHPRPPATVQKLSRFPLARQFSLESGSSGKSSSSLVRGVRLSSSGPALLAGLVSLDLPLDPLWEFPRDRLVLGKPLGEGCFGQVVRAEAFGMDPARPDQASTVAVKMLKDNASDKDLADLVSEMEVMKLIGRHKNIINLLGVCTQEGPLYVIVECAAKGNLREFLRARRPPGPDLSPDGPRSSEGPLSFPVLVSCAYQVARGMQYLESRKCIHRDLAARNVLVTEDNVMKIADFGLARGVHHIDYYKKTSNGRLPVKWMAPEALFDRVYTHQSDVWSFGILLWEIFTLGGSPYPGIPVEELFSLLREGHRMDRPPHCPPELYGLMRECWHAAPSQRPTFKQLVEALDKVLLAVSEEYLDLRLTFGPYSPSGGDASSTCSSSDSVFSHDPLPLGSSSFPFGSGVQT
Experiment: In-vitro biochemical kinase assay for FGFR4 (Caliper microfluidic mobility shift)
Settings: read-out: Biochemical FGFR4 IC50
measurement.kind: IC50 (nM)
One number for each entry, in nM.

These solved cases illustrate the format of a correct answer.
1) COCCNc1cc(NC(=O)N2CCCc3cc(C4CCN(CC(F)F)CC4)c(C=O)nc32)ncc1C#N    1.2
2) COC(C)CNc1cc(NC(=O)N2CCCc3cc(CO)c(C=O)nc32)ncc1C#N (racemic)    3.9
3) O=Cc1nc2c(cc1CO)CCCN2C(=O)Nc1ccc(C(F)(F)F)cn1    98
4) COCCNc1cc(NC(=O)N2CCCc3cc(CO)c(C=O)nc32)ncc1C(F)(F)F    21
5) CCCCC(O)c1ccc(NC(=O)N2CCCc3ccc(C=O)nc32)nc1 (racemic)    230
6) COCCNc1cc(NC(=O)N2CCCc3cc(N4CCOC4=O)c(C=O)nc32)ncc1C#N    0.2

Could you report IC50 for every entry in the following list?
1. CN(C)CCOc1cc(NC(=O)N2CCOc3ccc([13CH]=O)nc32)ncc1C#N
2. Cc1cc2c(nc1C=O)N(C(=O)Nc1ccc(C(F)(F)F)cn1)CCC2
3. N#Cc1cnc(NC(=O)N2CCCc3ccc(C=O)nc32)cc1C#N
4. COCCNc1cc(NC(=O)N2CCCc3cc(CN4CC[C@@H](O)C4=O)c(C=O)nc32)ncc1C#N
5. N#Cc1ccc(NC(=O)N2CCC(O)c3ccc(C=O)nc32)nc1 (racemic)
6. COCCNc1cc(NC(=O)N2CCCc3cc(-c4cn(C)nc4C)c(C=O)nc32)ncc1C#N
7. COCCNc1cc(NC(=O)N2CCCc3cc(CN4CCSCC4=O)c(C=O)nc32)ncc1C#N
8. CN1CCN(Cc2cc3c(nc2C=O)N(C(=O)Nc2cc(NCCOS(=O)(=O)O)c(C#N)cn2)CCC3)C(=O)C1

*A*
1. 43
2. 68.5
3. 40
4. 0.8
5. 32.5
6. 6.7
7. 0.1
8. 8.2

Hi there! I need IC50 for each item below, if you can.
1. N#Cc1cnc(NC(=O)N2CCCc3cc(CO)c(C=O)nc32)cc1OC1CN2CCC1CC2 (racemic)
2. COC[C@@H](C)Oc1nc(NC(=O)N2CCCc3cc(CO)c(C=O)nc32)ncc1Cl
3. O=Cc1nc2c(cc1CO)CCCN2C(=O)Nc1cc(O[C@H]2CCOC2)ccn1

*A*
[56, 48, 810]
